PROTOCOL SUMMARY: Cytotoxicity against human BRO cells after 72 hrs by MTT assay
Format: functional, cell-based
REPORTED CONDITIONS: bro
PROPERTY MEASURED: IC50 (µM)
The answer is to be given in µM; state only the numeric part.

[in] Returns the measured IC50 for the input molecule. Input: CN1CCN(CCCCNc2cc3c4ccccc4c(NCCCCN4CCN(C)CC4)cc3c3ccccc23)CC1
[out] 3.8

[in] Returns the measured IC50 for the input molecule. Input: CN1CCN(CCCCNc2cc3c4ccccc4c(NCCCCN4CCN(C)CC4)cc3c3ccccc23)CC1.Cl
[out] 0.6
